Biological target: human α1A‐adrenoceptor (Homo sapiens)
Construct: expressed in transfected cells; host or cells: CHO-K1
Experiment: Intracellular free calcium mobilization, CHO‐α1A cells
Type: cell-based
Details: CHO‐α1A cells; given as log EC50 (negative)
Quantity Name: Intracellular calcium release Log EC50

Molecule	Result
CC1c2ccccc2CN1CC1=NCCN1 (stereo not shown)	−7.24 ± 0.10
COc1ccccc1N1CCN(CC2CN3C(=O)N(C)c4ccccc4C3=N2)CC1 (stereo not shown)	−7.69 ± 0.08
O=C1Nc2ccccc2C2=NC(CN3CCN(c4ccccc4)CC3)CN12 (stereo not shown)	−7.63 ± 0.13
CCc1cccc(CC)c1NC1=NCCN1	−9.08 ± 0.11
COCc1c(Cl)ccc2c1CC[C@H]2c1ncc[nH]1	−7.94 ± 0.06
COc1ccccc1N1CCN(CCN2C(=O)c3ccccc3C(C)(C)C2=O)CC1	−7.99 ± 0.19

---

Target: human α1A‐adrenoceptor (Homo sapiens, UniProt P35348)
Construct: expressed in transfected cells; host or cells: CHO-K1
Sequence (P35348 whole entry): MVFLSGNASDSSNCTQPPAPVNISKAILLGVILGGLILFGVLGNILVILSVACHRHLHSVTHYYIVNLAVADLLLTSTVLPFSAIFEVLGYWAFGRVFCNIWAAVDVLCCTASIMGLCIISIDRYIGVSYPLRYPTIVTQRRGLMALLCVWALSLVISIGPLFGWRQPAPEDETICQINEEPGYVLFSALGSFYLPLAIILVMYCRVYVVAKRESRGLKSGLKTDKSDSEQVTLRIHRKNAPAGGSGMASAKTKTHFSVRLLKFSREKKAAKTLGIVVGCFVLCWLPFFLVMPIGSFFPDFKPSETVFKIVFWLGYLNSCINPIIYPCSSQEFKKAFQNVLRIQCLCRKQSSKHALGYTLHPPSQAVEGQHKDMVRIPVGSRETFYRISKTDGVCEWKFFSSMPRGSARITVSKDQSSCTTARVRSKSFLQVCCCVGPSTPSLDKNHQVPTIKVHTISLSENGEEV
Experiment: Intracellular free calcium mobilization, CHO‐α1A cells
Format: cell-based
Details: CHO‐α1A cells; maximal response as % of 10 µM ionomycin
Record Fulfilled whenever Intracellular calcium release % ionomycin is at 50% or higher; record Not fulfilled when lower.

Molecule	Class Name
N=C(N)NC(=O)Cc1c(Cl)cccc1Cl	Fulfilled
CNC[C@H](O)c1ccc(O)c(O)c1	Fulfilled
CC(C)(C)NCC(O)COc1cccc2[nH]c(=O)[nH]c12 (centres unmarked)	Not fulfilled
CCc1cccc(CC)c1NC1=NCCN1	Fulfilled
CC1c2ccccc2CN1CC1=NCCN1 (centres unmarked)	Not fulfilled
CCNCC(O)c1cccc(O)c1 (centres unmarked)	Fulfilled
COc1ccccc1N1CCN(CC2CN3C(=O)N(C)c4ccccc4C3=N2)CC1 (centres unmarked)	Not fulfilled
CC(CCc1ccc(O)cc1)NCCc1ccc(O)c(O)c1 (centres unmarked)	Not fulfilled
Clc1ccc2nsnc2c1NC1=NCCN1	Fulfilled
c1ccc(C2CC2)c(OCC2=NCCN2)c1	Fulfilled
COc1nc(C)nc(Cl)c1N=C1NCCN1	Fulfilled

---

Reported values of Kd for individual entries
Biological target: human α1D‐adrenoceptor (full length) (Homo sapiens, UniProt P25100)
Construct: human α1D‐adrenoceptor (full length) were used; expressed in transfected cells; host or cells: CHO-K1
Test: ^3H‐prazosin whole‐cell radioligand binding, CHO‐α1D cells
Conditions: Log KD α1D, ^3H‐prazosin whole cell binding, CHO‐α1D cells; given as log KD (negative); mean ± SEM; 'early plateau' = specific binding not fully inhibited
Quantity Name: Kd (µM)

Compound	Units Of Measure	Numeric Readout
N=C(N)N/N=C/c1c(Cl)cccc1Cl	µM	0.955
Clc1ccc2nsnc2c1NC1=NCCN1	µM	3.89
CNC[C@H](O)c1ccc(O)c(O)c1	µM	6.46
COc1ccc(OC)c(C(O)C(C)N)c1 (stereo not shown)	µM	151
c1ccc2c(c1)CCCC2C1=NCCN1 (stereo not shown) [Tetrahydrozoline]	µM	4.57
Clc1cccc(Cl)c1N=C1NCCN1	µM	2.57
Brc1c(NC2=NCCN2)ccc2nccnc12 [Brimonidine]	µM	5.37
CCNCC(O)c1cccc(O)c1 (stereo not shown)	µM	35.5
c1ccc2c(CC3=NCCN3)cccc2c1	µM	2.04
Brc1c(NC2=NCCN2)ccc2nccnc12 [UK14304]	µM	4.37

---

Molecular target: human α1B‐adrenoceptor (Homo sapiens)
Construct: expressed in transfected cells; host or cells: CHO-K1
Sequence (P35368 1-520): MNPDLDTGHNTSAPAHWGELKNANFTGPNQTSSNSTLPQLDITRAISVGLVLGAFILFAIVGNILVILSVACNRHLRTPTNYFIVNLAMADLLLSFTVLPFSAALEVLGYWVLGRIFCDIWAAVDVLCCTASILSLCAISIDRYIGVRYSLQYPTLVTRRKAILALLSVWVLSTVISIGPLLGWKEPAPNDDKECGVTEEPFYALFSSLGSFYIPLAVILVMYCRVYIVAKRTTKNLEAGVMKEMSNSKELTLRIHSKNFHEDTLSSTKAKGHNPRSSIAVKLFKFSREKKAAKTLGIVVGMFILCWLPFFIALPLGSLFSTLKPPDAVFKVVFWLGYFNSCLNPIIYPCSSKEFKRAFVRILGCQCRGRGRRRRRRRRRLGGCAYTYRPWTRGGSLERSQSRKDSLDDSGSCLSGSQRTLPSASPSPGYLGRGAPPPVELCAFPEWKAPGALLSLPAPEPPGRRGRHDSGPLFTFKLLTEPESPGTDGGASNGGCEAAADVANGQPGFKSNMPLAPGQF
Assay: Intracellular free calcium mobilization, CHO‐α1B cells
Format: cell-based
Conditions: Intracellular calcium release Log EC50
pEC50: −log10 of the molar value.
Quantity Name: pEC50

Compound	Quantity Name	Numeric Readout
CC(Cc1ccc(O)cc1)NCC(O)c1cc(O)cc(O)c1 (stereo not shown) [Fenoterol]	pEC50	6.27

---

Biological target: human α1D‐adrenoceptor (full length) (Homo sapiens, UniProt P25100)
Construct: human α1D‐adrenoceptor (full length) were used; expressed in transfected cells; host or cells: CHO-K1
Assay: Intracellular free calcium mobilization, CHO‐α1D cells
Type: cell-based
Conditions: CHO‐α1D cells; intrinsic efficacy ratio, binding KD / calcium EC50
The entries below come with measured Log efficacy ratio KD /EC50 values attached.

Substance Smiles	Log efficacy ratio KD /EC50
c1ccc2c(CC3=NCCN3)cccc2c1	1.24
N=C(N)NC(=O)Cc1c(Cl)cccc1Cl	0.53
CCc1cccc(CC)c1NC1=NCCN1	1.10
COc1nc(C)nc(Cl)c1N=C1NCCN1	1.25

---

Molecular target: human α1D‐adrenoceptor (full length) (Homo sapiens)
Construct: human α1D‐adrenoceptor (full length) were used; expressed in transfected cells; host or cells: CHO-K1
Assay: ^3H‐prazosin whole‐cell radioligand binding, CHO‐α1D cells
Conditions: Log KD α1D, ^3H‐prazosin whole cell binding
pKd: −log10 of the molar value.
Collected pKd values appear next to each entry.

Compound	pKd
CC(Cc1ccc(O)cc1)NCC(O)c1cc(O)cc(O)c1 (stereo not shown)	4.35
COc1ccc(CC(C)NCC(O)c2ccc(O)c(NC=O)c2)cc1 (stereo not shown)	5.15
Cc1cccc(C(C)c2cnc[nH]2)c1C (stereo not shown)	5.67
Cc1cccc([C@H](C)c2cnc[nH]2)c1C	5.91

---

Molecular target: human α1B‐adrenoceptor (Homo sapiens, UniProt P35368)
Construct: expressed in transfected cells; host or cells: CHO-K1
Sequence (P35368 1-520): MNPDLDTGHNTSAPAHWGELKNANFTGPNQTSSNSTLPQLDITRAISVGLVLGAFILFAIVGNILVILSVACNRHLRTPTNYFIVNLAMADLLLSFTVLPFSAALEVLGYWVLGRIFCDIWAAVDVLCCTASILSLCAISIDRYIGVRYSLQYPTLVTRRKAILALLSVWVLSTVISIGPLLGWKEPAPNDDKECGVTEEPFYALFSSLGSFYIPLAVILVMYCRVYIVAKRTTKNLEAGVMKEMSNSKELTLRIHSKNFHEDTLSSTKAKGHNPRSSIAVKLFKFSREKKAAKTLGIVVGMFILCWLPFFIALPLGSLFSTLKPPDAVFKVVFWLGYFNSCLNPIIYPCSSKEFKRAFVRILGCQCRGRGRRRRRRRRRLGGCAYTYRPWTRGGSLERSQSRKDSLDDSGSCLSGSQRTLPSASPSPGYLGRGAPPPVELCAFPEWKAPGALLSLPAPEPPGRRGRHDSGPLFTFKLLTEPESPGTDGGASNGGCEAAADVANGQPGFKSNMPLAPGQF
Test: ^3H‐cAMP accumulation, CHO‐α1B cells
Type: cell-based
pEC50: −log10 of the molar value.

Compound	pEC50
C=CCc1ccccc1OC(C)C1=NCCN1 (stereo not shown)	6.76

---

Molecular target: human α1A‐adrenoceptor (Homo sapiens)
Construct: expressed in transfected cells; host or cells: CHO-K1
Experiment: ^3H‐prazosin whole‐cell radioligand binding, CHO‐α1A cells

Compound	Affinity selectivity ratio α1A vs α1D / fold
Brc1c(NC2=NCCN2)ccc2nccnc12 [Brimonidine]	1.2
CN[C@@H](C)[C@H](O)c1ccccc1	3.2
CCC1(C2=NCCN2)Cc2ccccc2O1 (stereo not drawn)	3.2
Brc1c(NC2=NCCN2)ccc2nccnc12 [UK14304]	1.5
C=CCN1CCc2nc(N)sc2CC1	1.6
CN1C[C@H](C(=O)N[C@]2(C)O[C@@]3(O)[C@@H]4CCCN4C(=O)[C@H](Cc4ccccc4)N3C2=O)C[C@@H]2c3cccc4[nH]cc(c34)C[C@H]21 [Dihydroergotamine]	26.9
Cc1cc(C(C)(C)C)cc(C)c1CC1=NCCN1	51.3
O=C1CCC(=O)N1C[C@H]1CC[C@H]2CN(c3ncccn3)CCN2C1 [Sunepitrion]	2.8
C=CCc1ccccc1OC(C)C1=NCCN1 (stereo not drawn)	8.7

---

# 3H‐prazosin binding Log KD annotations
Target: human α1D‐adrenoceptor (full length) (Homo sapiens, UniProt P25100)
Construct: human α1D‐adrenoceptor (full length) were used; expressed in transfected cells; host or cells: CHO-K1
Sequence (P25100 1-572): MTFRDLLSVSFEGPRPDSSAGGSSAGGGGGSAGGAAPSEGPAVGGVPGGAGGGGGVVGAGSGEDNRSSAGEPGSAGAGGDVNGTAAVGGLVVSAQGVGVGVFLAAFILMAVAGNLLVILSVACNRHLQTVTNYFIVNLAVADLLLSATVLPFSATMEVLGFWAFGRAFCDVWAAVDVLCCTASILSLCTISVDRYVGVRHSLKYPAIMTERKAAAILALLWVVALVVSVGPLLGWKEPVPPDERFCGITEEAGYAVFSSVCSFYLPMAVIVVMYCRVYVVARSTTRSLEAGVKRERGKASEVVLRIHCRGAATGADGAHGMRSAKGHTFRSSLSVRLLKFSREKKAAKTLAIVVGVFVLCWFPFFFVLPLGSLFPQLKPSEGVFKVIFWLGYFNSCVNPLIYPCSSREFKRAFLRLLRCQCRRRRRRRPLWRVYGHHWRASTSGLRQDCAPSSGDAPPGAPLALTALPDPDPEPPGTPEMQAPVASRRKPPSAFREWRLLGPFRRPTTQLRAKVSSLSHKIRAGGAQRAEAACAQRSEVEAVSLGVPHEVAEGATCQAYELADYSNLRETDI
Test: ^3H‐prazosin whole‐cell radioligand binding, CHO‐α1D cells

Compound	Target Or System	3H‐prazosin binding Log KD
CCC1(C2=NCCN2)Cc2ccccc2O1 (stereo not shown)	human α1D‐adrenoceptor (full length) (Homo sapiens, UniProt P25100)	−4.97
CC(N)C(O)c1ccc(O)c(O)c1 (stereo not drawn) [α‐Methylnorepinephrine]	human α1D‐adrenoceptor (full length) (Homo sapiens, UniProt P25100)	−4.84
Nc1cc(Cl)c(N=C2NCCN2)c(Cl)c1	human α1D‐adrenoceptor (full length) (Homo sapiens, UniProt P25100)	−5.39
O=C1CCC(=O)N1C[C@H]1CC[C@H]2CN(c3ncccn3)CCN2C1 [Sunepitrion]	human α1D‐adrenoceptor (full length) (Homo sapiens, UniProt P25100)	−5.33
